targetSystem: Calcium/calmodulin-dependent protein kinase kinase 2 (Homo sapiens, UniProt Q96RR4)
Sequence (Q96RR4 2-588 limits assumed): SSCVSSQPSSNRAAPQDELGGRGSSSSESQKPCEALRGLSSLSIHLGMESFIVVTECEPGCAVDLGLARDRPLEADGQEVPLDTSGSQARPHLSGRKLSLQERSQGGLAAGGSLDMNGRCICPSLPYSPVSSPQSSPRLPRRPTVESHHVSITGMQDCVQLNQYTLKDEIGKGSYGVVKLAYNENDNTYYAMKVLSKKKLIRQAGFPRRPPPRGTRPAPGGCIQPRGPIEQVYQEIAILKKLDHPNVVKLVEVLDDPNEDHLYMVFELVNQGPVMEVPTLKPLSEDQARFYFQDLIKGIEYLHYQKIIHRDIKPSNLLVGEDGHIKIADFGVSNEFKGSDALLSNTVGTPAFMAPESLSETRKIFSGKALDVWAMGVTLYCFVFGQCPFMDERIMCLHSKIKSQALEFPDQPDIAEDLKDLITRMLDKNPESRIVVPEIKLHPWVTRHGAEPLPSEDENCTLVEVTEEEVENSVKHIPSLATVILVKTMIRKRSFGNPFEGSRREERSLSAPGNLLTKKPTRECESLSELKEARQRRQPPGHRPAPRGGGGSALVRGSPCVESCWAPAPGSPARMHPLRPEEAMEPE
Outcome label depends on ΔTm relative to 0.7 °C: at/above gives true (1), below gives false (0).

## Input Answer whether ΔTm of O=C(O)Cc1ccc(O)c([N+](=O)[O-])c1 is greater than or equal to 0.7 °C.
## Output false (0)

## Input Is ΔTm for COc1cc(O)c2c(c1)oc(=O)c1c3cc(O)c(O)cc3oc21 at or above 0.7 °C?
## Output true (1)

## Input hey, is ΔTm for this one >= 0.7 °C? CC(C)c1nn(-c2c(Cl)cccc2Cl)c2nc(Cc3ccc(OCCO)cc3)[nH]c(=O)c12
## Output true (1)

## Input Quick check, ΔTm >= 0.7 °C? CCOc1cc2ncnc(Nc3cccc(Br)c3)c2cc1OCC
## Output true (1)

## Input Record O=c1cc(N2CCOCC2)oc2c1ccc1ccccc12 ; criterion: ΔTm no lower than 0.7 °C. Met?
## Output false (0)
